Recorded IC50 values for a group of molecules are listed next.
molecular target: hA1 (Homo sapiens (Human), UniProt P30542); test: FLIPR inhibition assay in hADORA1/CHO (hA1 expressing) cells; type: cell-based; details: hADORA1/CHO cells, FLIPR calcium, adenosine stimulation; read-out: cAMP & FLIPR IC50 (nM) hA1
Sequence (P30542 whole entry): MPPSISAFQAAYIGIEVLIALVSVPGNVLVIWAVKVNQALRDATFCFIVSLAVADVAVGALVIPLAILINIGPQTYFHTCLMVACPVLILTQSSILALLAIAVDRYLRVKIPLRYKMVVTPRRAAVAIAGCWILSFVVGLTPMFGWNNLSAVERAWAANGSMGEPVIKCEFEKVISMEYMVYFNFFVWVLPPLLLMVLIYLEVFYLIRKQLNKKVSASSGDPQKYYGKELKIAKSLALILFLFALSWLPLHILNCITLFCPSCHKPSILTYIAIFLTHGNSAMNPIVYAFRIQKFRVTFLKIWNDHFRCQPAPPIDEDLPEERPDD

Observe how each entry below is paired with its result.
Molecule: Cc1cnc2ccc(-c3c(-c4ccc(F)cc4)nc(N)n4nc(CCN(C)C)nc34)cn12 [Example 120]
Measurement Type: IC50
Obs Value: 66.7 nM
--
Molecule: Nc1nc(-c2ccc(F)cc2)c(-c2ccc(=O)n(C3CS(=O)(=O)C3)c2)c2nc(Cc3c(F)cccc3F)nn12 [Example 60]
Measurement Type: IC50
Obs Value: 40 nM
--
Molecule: COCCc1nc2c(-c3ccc4ncc(C)n4c3)c(-c3ncco3)nc(N)n2n1 [Example 126]
Measurement Type: IC50
Obs Value: 83.6 nM
--
Molecule: Nc1cccc(Cc2nc3c(-c4ccc5nccn5c4)c(-c4ccc(F)cc4)nc(N)n3n2)n1 [Example 37]
Measurement Type: IC50
Obs Value: 12 nM
--
Molecule: Cc1cnc2ccc(-c3c(N4CCN(C)CC4)nc(N)n4nc(Cc5c(F)cccc5F)nc34)cn12 [Example 108]
Measurement Type: IC50
Obs Value: 131 nM
--
Molecule: Cc1cnc2ccc(-c3c(-c4ncco4)nc(N)n4nc(Cc5ncccc5F)nc34)cn12 [Example 99]
Measurement Type: IC50
Obs Value: 3.5 nM
--
Molecule: Nc1nc(-c2ccc(F)cc2)c(-c2ccc(=O)n(C3CC3)c2)c2nc(Cc3ncccc3F)nn12 [Example 36]
Measurement Type: IC50
Obs Value: 45 nM
--
Molecule: Cn1cc(-c2c(-c3ccc(F)cc3F)nc(N)n3nc(Cc4ncccc4F)nc23)ccc1=O [Example 64]
Measurement Type: IC50
Obs Value: 97 nM

I have this molecule here, CCn1cc(-c2c(-c3ccc(F)cc3)nc(N)n3nc(Cc4ncccc4F)nc23)ccc1=O [Example 34] , and I need its recorded IC50.
12 nM

I have this molecule here, Cc1cnc2ccc(-c3c(-c4ccc(F)cc4)nc(N)n4nc(CC5CCOC5)nc34)cn12 (single isomer, unassigned; isomer 1) [Example 105-1] , and I need its recorded IC50.
14 nM

I have this molecule here, Cc1cnc2ccc(-c3c(-n4ccc(F)n4)nc(N)n4nc(Cc5ncccc5F)nc34)cn12 [Example 116] , and I need its recorded IC50.
7.9 nM

I have this molecule here, Cc1cc(-c2c(-c3ncco3)nc(N)n3nc(Cc4c(F)cccc4F)nc23)cc(C2CC2)n1 [Example 84] , and I need its recorded IC50.
2720 nM

I have this molecule here, Cn1cc(-c2c(-c3ncco3)nc(N)n3nc(Cc4ncccc4OC(F)F)nc23)ccc1=O [Example 71] , and I need its recorded IC50.
8.9 nM

I have this molecule here, Cc1cc(-c2c(-c3ccc(F)cc3)nc(N)n3nc(Cc4ncccc4F)nc23)cc(C)n1 [Example 14] , and I need its recorded IC50.
97 nM

I have this molecule here, Nc1nc(-c2ncco2)c(-c2ccnc(OC(F)F)c2)c2nc(Cc3ncccc3F)nn12 [Example 86] , and I need its recorded IC50.
59 nM

I have this molecule here, Cn1cc(-c2c(-c3ccc(C(F)F)cc3)nc(N)n3nc(Cc4ncccc4F)nc23)ccc1=O [Example 41] , and I need its recorded IC50.
17 nM

I have this molecule here, Cc1cc(-c2c(-c3ccc(F)cc3)nc(N)n3nc(Cc4cscn4)nc23)ccn1 [Example 7] , and I need its recorded IC50.
23 nM

I have this molecule here, Cc1cc(-c2c(-c3ccc(F)cc3)nc(N)n3nc(Cc4c(F)cccc4F)nc23)c(C)cn1 [Example 13] , and I need its recorded IC50.
153 nM

I have this molecule here, Cc1cnc2ccc(-c3c(N4CCOC(C)C4)nc(N)n4nc(Cc5ncccc5F)nc34)cn12 (single isomer, unassigned; isomer 2) [Example 112-2] , and I need its recorded IC50.
120 nM
